# target or system: T1, FLI1 F362A 259-375 (UniProt Q01543 259-375, F362A)
# T1 sequence: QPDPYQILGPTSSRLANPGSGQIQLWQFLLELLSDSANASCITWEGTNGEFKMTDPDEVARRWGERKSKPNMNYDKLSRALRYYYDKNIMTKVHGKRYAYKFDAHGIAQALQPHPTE
# assay remarks: fluorescence anisotropy
parameter: Kd (µM)
# unit: µM | format: bare number

**Query** Entry under review: 1site_weak (dsDNA) DNA 1: TTGAAGGAAGAG DNA 2: CTCTTCCTTCAA . Reported Kd?
**Result** 0.544
